From: PubChem BioAssay (NCI)

Tested on: SF-268 CNS
test.name: NCI tumour cell line growth inhibition, 48 h
Answer 0.0 if TGI is under 40 µM, and 1.0 if it is 40 µM or more.

INSERT INTO assay_data (compound, target_system, category) VALUES
  ('COc1cc2c(cc1OC)CC1c3cc(OC)c(OC)cc3CCN1CC2 (stereo not given)', 'SF-268 CNS', 1.0),
  ('Cc1ccc(C2COc3cc(O)c(O)cc3C2)cc1 (stereo not given)', 'SF-268 CNS', 1.0),
  ('CC(=O)O[C@@]1(C)[C@@H](C)C(=O)O[C@@H]2CCN3CC=C(COC(=O)[C@]1(C)O)[C@H]23', 'SF-268 CNS', 1.0),
  ('CCN(CC)Cc1ccc(C(=S)Nc2ccc(C)cc2)s1', 'SF-268 CNS', 0.0),
  ('CC(C)C[C@H](NC(=O)[C@H](Cc1ccc(F)cc1)NC(=O)c1ccccn1)B(O)O', 'SF-268 CNS', 0.0);

# evaluate next
Form field: TGI at least 40 µM? Entry: CC(=O)O[C@H]1[C@@H]2OC(=O)C(CSc3ccccc3)[C@@H]2C[C@H]2O[C@]2(C)CC/C=C(\C)CCC[C@@H]1C (stereo not given in full) 0.0
